Target: T1, human IL-11 (human, UniProt P20809 22-199)
T1 sequence: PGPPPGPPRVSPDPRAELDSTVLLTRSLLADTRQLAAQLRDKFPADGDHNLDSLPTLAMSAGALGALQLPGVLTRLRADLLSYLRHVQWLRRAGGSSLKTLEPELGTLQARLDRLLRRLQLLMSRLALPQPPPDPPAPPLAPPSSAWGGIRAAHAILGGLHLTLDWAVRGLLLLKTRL
Assay: cell-based or functional assay
List of IC50, RGA 2 values.
Please reply with the bare figure in nM and do not write the unit itself.

BINDER	ATTRIBUTE_MEASURED	VALUE_OBSERVED
TPP-31289 (antibody, IgG4, V domains shown) VH: EVQLLESGGGLVQPGRSLRLSCAASGFTFSHYDMNWLRQAPGKGLEWVGVISYDGSNKFYADFVKGRFTISRDNSKNTLYLQMNSLRAEDTAVYYCARTPGSHFDYWGQGTLVTVSS VL: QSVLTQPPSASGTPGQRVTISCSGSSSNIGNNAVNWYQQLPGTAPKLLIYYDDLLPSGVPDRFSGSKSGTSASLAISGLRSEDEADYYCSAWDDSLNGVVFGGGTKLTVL	IC50, RGA 2	76
TPP-31307 (antibody, IgG4, V domains shown) VH: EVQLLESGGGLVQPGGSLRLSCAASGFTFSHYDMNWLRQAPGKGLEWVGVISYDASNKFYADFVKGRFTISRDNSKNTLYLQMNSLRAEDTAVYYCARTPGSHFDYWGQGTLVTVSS VL: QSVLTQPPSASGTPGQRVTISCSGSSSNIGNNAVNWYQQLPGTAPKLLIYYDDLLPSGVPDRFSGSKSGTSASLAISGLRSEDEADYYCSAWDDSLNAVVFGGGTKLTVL	IC50, RGA 2	126

Now take the following binder into account.
[Q] Specify IC50, RGA 2 for TPP-31284 (antibody, IgG4, V domains shown, hIgG4 SPLE, lambda) VH: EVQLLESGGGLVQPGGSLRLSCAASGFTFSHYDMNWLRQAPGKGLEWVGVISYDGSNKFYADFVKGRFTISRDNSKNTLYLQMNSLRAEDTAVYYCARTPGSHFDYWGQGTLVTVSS VL: QSVLTQPPSASGTPGQRVTISCSGSSSNIGNNAVNWYQQLPGTAPKLLIYYDDLRPSGVPDRFSGSKSGTSASLAISGLRSEDEADYYCSAWDDSLNGVVFGGGTKLTVL and stop.
[A] 131
